Measured values drawn from PubChem BioAssay (NCI) for this set.

# Tested on: SW-620 colon
# PROTOCOL_TEXT: NCI-60 one-dose screen, 48 h
# PROTOCOL_CONDITIONS: 10 µM unless noted
# Protocol: Growth inhibition of the SW-620 human tumor cell line is measured as a screen for anti-cancer activity. Cells are grown in 96 well plates and exposed to the test compound for 48 hours. Compounds are tested at a single concentration, which is 10^-5 M for most compounds. The reported endpoint is percent growth (GI% or GIPRCNT), where numbers from 0 - 100% represent growth inhibition, and numbers from -100% - 0 represent cell death. For example, a value of 40 represents 60% growth inhibition. […]
This is part of a sample that, as a whole, favours compounds with a hit. Of some 83,000 tested, about 20% had one in any assay. The source made the active and inactive calls. The calls were made as follows: active = growth percent below 10; inactive = the rest.
# valid calls are 1 (active), -1 (inactive); nothing else

Asked: For `Cc1cc[c-]cc1.Fc1c[c-]c(-c2ccccn2)c(F)c1.N#CCC[PH+](CCC#N)c1ccccc1.[Pt+2]` , what call appears in the results of this test?
Given back: 1

Asked: For COc1c(O)cc2c(c1OC)-c1ccc(SC)c(=O)cc1C(NC(C)=O)CC2 (centres undefined) , what call appears in the results of this test?
Given back: -1

Asked: For `C=CC[PH+](c1ccccc1)c1ccccc1.C=CC[PH+](c1ccccc1)c1ccccc1.[Pt+2].[S-]c1nc2ccccc2[nH]1.[S-]c1nc2ccccc2[nH]1` , what call appears in the results of this test?
Given back: 1

Asked: For `C/C(=C\c1ccn(-c2ccc(N)cc2F)n1)[C@@H]1C[C@@H]2O[C@]2(C)CCC[C@H](C)[C@H](O)[C@@H](C)C(=O)C(C)(C)[C@@H](O)CC(=O)O1` , what call appears in the results of this test?
Given back: -1

---

# System: SK-MEL-28 melanoma
# PROTOCOL_TEXT: NCI-60 one-dose screen, 48 h (100 = growth as untreated, 0 = no growth, -100 = all killed)
# PROTOCOL_CONDITIONS: 10 µM unless noted
This is part of a sample that, as a whole, favours compounds with a hit. Of some 83,000 tested, about 20% had one in any assay. Active and inactive are the calls of the source. Rule for the calls: active = growth percent below 10; inactive = the rest.
Kindly supply the reported growth values for the records listed here.

The recorded growth for `CC[C@H](C)[C@H](NC(=O)[C@H]1CCCCN1C)C(=O)N(C)[C@H](C[C@@H](OC(C)=O)c1cccc(C(=O)N[C@@H](Cc2ccccc2)C[C@H](C)C(=O)OC)n1)C(C)C` is 62.8% (inactive)

The recorded growth for `CC(=O)Cc1ccc2c(c1)OCO2` is 130% (inactive)

The recorded growth for CCCCCCCCCCCCCCCCCC1OCC(COC(=O)O[C@@H](C(=O)O[C@H]2C[C@@]3(O)[C@@H](OC(=O)c4ccccc4)[C@@H]4[C@]5(OC(C)=O)CO[C@@H]5C[C@H](O)[C@@]4(C)C(=O)[C@H](OC(C)=O)C(=C2C)C3(C)C)[C@@H](NC(=O)c2ccccc2)c2ccccc2)O1 (stereo partly drawn) is 58.4% (inactive)

The recorded growth for `O=c1c2ccccc2nc(-c2ccccc2Cl)n1-c1nnc(C(F)(F)F)s1` is 30.2% (inactive)

The recorded growth for O=C1CCCCC1CN1CCCCC1 (stereo not drawn) is 106% (inactive)

The recorded growth for CC1=CC(=O)CCC12CCOC2=O (stereo not drawn) is 95.9% (inactive)

The recorded growth for `N[C@@H](CCC(=O)CCl)C(=O)O` is 103% [20 µM] (inactive)

The recorded growth for `CC/C(=C(\c1ccc(OCCN2CCOCC2)cc1)c1ccc(OC(=O)Cc2ccccc2)cc1)c1ccc(Cl)cc1` is 101% (inactive)
